# measurementTarget: papain (Carica papaya)
# Sequence (P00784 134-345): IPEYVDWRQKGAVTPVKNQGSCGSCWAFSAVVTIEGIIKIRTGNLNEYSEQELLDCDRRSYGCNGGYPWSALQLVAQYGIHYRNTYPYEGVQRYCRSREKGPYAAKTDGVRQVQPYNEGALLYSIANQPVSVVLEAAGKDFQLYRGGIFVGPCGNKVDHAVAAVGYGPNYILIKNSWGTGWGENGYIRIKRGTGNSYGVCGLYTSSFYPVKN
# experimentNotes: In vitro assay procedure for papain (inhibition)
# Type: biochemical
# testConditions: pH 6.5, 10 min incubation at room temperature, substrate N-CBZ-Pro-Phe-Arg-pNA; read-out: IC50 Papain
# IC50 per entry
The answer is to be given in µM; state only the numeric part.

In the examples that follow, each entry is paired with its recorded IC50.
Qu. Could you tell me which IC50 is on file for CS(=O)(=O)NCC1CN2C(=O)CC2O1 (stereo not shown) ?
Ans. 0.91

Qu. What do you have for O=C(NC(c1ccccc1)C(O)C(=O)OCC1CN2C(=O)CC2O1)c1ccccc1 (stereo not shown) ?
Ans. 0.24

Qu. Continue with COc1ccc(C(=O)OCC2CN3C(=O)CC3O2)cc1 (stereo not shown)
Ans. 2

Qu. Proceed to Nc1ccc(C(=O)OCC2CN3C(=O)CC3O2)cc1 (stereo not shown)
Ans. 2.4

Qu. Also check COc1ccc(C(=O)OCC2CN3C(=O)CC3O2)cc1OC (stereo not shown)
Ans. 0.13

Next:
Qu. Return reported IC50; argument: O=C(CO)NCC1CN2C(=O)CC2O1 (stereo not shown)
Ans. 1.69

Qu. Same question, O=C(OCC1CN2C(=O)CC2O1)c1cc(F)c(F)cc1F (stereo not shown) this time
Ans. 0.66

Qu. Do the same for O=C(OCC1CN2C(=O)CC2O1)c1ccc(O)cc1 (stereo not shown) please
Ans. 2.4

Qu. Next compound up: O=C(O)c1ccccc1C(=O)OCC1CN2C(=O)CC2O1 (stereo not shown)
Ans. 16

Qu. Try this compound too: Cn1c2nc(=O)[nH]c(=O)c-2nc2cc(C(=O)OC[C@H]3CN4C(=O)C[C@@H]4O3)ccc21 (relative stereo)
Ans. 0.76

Qu. Same question, O=C1CC2OC(CSc3ccccc3)CN12 (stereo not shown) this time
Ans. 0.85

Qu. Proceed to O=C(O)COc1ccc(C(=O)OCC2CN3C(=O)CC3O2)cc1 (stereo not shown)
Ans. 2.9

---

# measurementTarget: papain (Carica papaya)
# experimentNotes: In vitro assay procedure for papain (inhibition)
# Assay type: biochemical
# testConditions: pH 6.5, 10 min incubation at room temperature, substrate N-CBZ-Pro-Phe-Arg-pNA; read-out: IC50 Papain
Assign labels as follows, please: met for IC50 below 0.8 µM; not met for IC50 equal to or exceeding 0.8 µM.

Qu. Please let me know if NC(CC(=O)O)C(=O)OCC1CN2C(=O)CC2O1 (stereo not shown) shows IC50 below 0.8 µM.
Ans. not met

Qu. Cool, now NC(CC(=O)O)C(=O)NCC1CN2C(=O)CC2O1 (stereo not shown)
Ans. not met

Qu. What about this molecule? O=C(CNC(=O)OCc1ccccc1)NCC(=O)OCC1CN2C(=O)CC2O1 (stereo not shown)
Ans. met

Now take the following molecule into account.
Qu. Given the entry O=C1CC2OC(CS(=O)(=O)c3ccccc3)CN12 (stereo not shown) , would its reported IC50 be below 0.8 µM?
Ans. not met

---

# measurementTarget: papain (Carica papaya)
# experimentNotes: In vitro assay procedure for papain (inhibition)
# Type: biochemical
# testConditions: pH 6.5, 10 min incubation at room temperature, substrate N-CBZ-Pro-Phe-Arg-pNA; read-out: IC50 Papain
# IC50 values compiled below
Kindly answer with a numeric value in nM, unit omitted.

Worked set:
Qu. Look at this molecule and give its reported IC50. O=C1CC2OC(C[S+]([O-])Cc3ccccc3)CN12 (stereo not drawn) [Example 62]
Ans. 760

Qu. Same thing, different molecule: O=C(NCC1CN2C(=O)CC2O1)c1ccccc1 (stereo not drawn) [Example 58]
Ans. 810

Qu. Can you handle COc1ccc(S(=O)(=O)NCC2CN3C(=O)CC3O2)cc1 (stereo not drawn) [Example 59] next?
Ans. 3200

Qu. Repeat with O=C(OC[C@H]1CN2C(=O)C[C@@H]2O1)C1CCCC1 (racemic) [Example 12]
Ans. 1130

Qu. Same thing, different molecule: Cc1c(C(=O)OC[C@H]2CN3C(=O)C[C@@H]3O2)c(=O)[nH]c2ccccc12 (relative stereo) [Example 10]
Ans. 140

Qu. What would you report for CCOC(=O)c1ccc2c(c1)nc1c(=O)n(C[C@H]3CN4C(=O)C[C@@H]4O3)c(=O)nc-1n2C (relative stereo) [Example 15] ?
Ans. 1240

Qu. Similarly, COc1ccc(C(=O)NCC2CN3C(=O)CC3O2)cc1 (stereo not drawn) [Example 68] ?
Ans. 720

Qu. Another molecule to look at: CC[C@H](C)[C@H](NC(=O)OCc1ccccc1)C(=O)OC[C@H]1CN2C(=O)C[C@@H]2O1 (mixture of isomers) [Example 6]
Ans. 380

Continuing:
Qu. Requested read-out: IC50. Entry: O=C(N[C@@H](Cc1ccccc1)C(=O)NCC1CN2C(=O)CC2O1)OCc1ccccc1 (stereo partly drawn) [Example 23]
Ans. 350

Qu. Queued: CC(=O)NCCCCC(NC(C)=O)C(=O)OCC1CN2C(=O)CC2O1 (stereo not drawn) [Example 43]
Ans. 1770

Qu. Now consider NC(CC(=O)O)C(=O)NCC(=O)NCC1CN2C(=O)CC2O1 (stereo not drawn) [Example 40] and answer again.
Ans. 8300

Qu. Similarly, O=C(OCC1CN2C(=O)CC2O1)c1ccc(F)cc1 (stereo not drawn) [Example 66] ?
Ans. 2400

Qu. Next: CC(=O)NCC(=O)NCC1CN2C(=O)CC2O1 (stereo not drawn) [Example 31]
Ans. 4100

Qu. And then O=C(OC[C@H]1CN2C(=O)C[C@@H]2O1)C1CCCCC1 (racemic) [Example 11] , what is it?
Ans. 1000

Qu. What do we get for O=C(/C=C/c1ccccc1)OC[C@H]1CN2C(=O)C[C@@H]2O1 (relative stereo) [Example 13] ?
Ans. 450

Where these numbers come from: patent US5925633A
